Target: RORγ ligand binding domain (LBD) (Homo sapiens, UniProt P51449)
Construct: made in house; host or cells: E. coli BL-21 (BL3), vector pDEST15
Sequence (P51449 269-508 limits assumed): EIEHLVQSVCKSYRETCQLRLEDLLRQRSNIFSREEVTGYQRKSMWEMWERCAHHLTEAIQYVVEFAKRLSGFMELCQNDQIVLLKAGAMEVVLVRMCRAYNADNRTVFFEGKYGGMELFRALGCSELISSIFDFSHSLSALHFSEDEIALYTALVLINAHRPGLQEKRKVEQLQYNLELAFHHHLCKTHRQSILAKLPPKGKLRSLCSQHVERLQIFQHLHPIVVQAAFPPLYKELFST
Test: TR-FRET Activity Assay (ligand sensing, RORγ-LBD / coactivator peptide interaction, LANCE)
Assay type: biochemical
Details: first value of the cell FRET/FF/REN; TR-FRET activity assay; read-out: pIC50 (FRET) (converted)
Below, each of the compounds is paired with its reported log10 IC50 value.
Please note: log10 values; quantity IC50; unit nM.

Below, each entry is followed by its recorded log10 IC50 result.
Compound	Test target	Value type	Test value
Cc1c(C(=O)NCCC(C)(C)C(=O)O)cc(-c2ccc(S(=O)(=O)NC(C)(C)C(F)(F)F)c(C(F)(F)F)c2)n1CC1CCCCC1	RORγ ligand binding domain (LBD) (Homo sapiens, UniProt P51449)	log10 IC50	2.80
Cc1c(C(=O)NCC(C)(C)O)cc(-c2ccc(S(=O)(=O)NC(C)(C)C)c3ccccc23)n1CC1CCCC(F)C1 (stereo not drawn)	RORγ ligand binding domain (LBD) (Homo sapiens, UniProt P51449)	log10 IC50	3.30

Prompt: Which measured log10 IC50 value corresponds to Cc1c(C(=O)NC[C@H]2CCCO2)cc(-c2cc(C(C)(C)C)c3c(c2)C2(CCO3)CC2)n1CC1CCCCC1 ?
Completion: 2.50

Prompt: Which measured log10 IC50 value corresponds to Cc1c(C(=O)NC2CCOCC2)cc(-c2ccc(C(C)(C)C(=O)NC(C)(C)C)c(C(F)(F)F)c2)n1CC1CCCCC1 ?
Completion: 3.60

Prompt: Which measured log10 IC50 value corresponds to Cc1c(C(=O)N2CCC(C(=O)O)CC2)cc(-c2cc(C(C)(C)C)c3c(c2)C2(CCO3)CC2)n1CC1CCCCC1 ?
Completion: 3.20

Prompt: Which measured log10 IC50 value corresponds to Cc1c(C(=O)NC2COC2)cc(-c2cc(C(=O)NC(C)C)cc(C(C)(C)C)c2)n1CC1CCCCC1 ?
Completion: 3.10

Prompt: Which measured log10 IC50 value corresponds to Cc1c(C(=O)NC2CCOCC2)cc(-c2ccc(NS(=O)(=O)C(C)(C)C)c(C(F)(F)F)c2)n1CC1CCCCC1 ?
Completion: 3.10

Prompt: Which measured log10 IC50 value corresponds to Cc1c(C(=O)NC2COC2)cc(-c2cc(C(C)(C)C)c3c(c2)C(C)(C)CC(=O)N3C)n1CC1CCCCC1 ?
Completion: 3.00

Prompt: Which measured log10 IC50 value corresponds to Cc1c(C(=O)NCCCCC(=O)O)cc(-c2cc(C(C)(C)C)cc(C(C)(C)C)c2)n1CC1CCCCC1 ?
Completion: 3.10
